# target-desc: coagulation factor Xa (FXa) (UniProt P00742;P00742 P00742:41-179,P00742:235-488)
# Sequence (P00742 41-179, chain 1 of 2): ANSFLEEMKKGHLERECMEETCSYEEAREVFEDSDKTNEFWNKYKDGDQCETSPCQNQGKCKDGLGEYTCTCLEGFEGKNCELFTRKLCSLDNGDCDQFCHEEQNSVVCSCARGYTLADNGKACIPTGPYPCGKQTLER
# Sequence (P00742 235-488, chain 2 of 2): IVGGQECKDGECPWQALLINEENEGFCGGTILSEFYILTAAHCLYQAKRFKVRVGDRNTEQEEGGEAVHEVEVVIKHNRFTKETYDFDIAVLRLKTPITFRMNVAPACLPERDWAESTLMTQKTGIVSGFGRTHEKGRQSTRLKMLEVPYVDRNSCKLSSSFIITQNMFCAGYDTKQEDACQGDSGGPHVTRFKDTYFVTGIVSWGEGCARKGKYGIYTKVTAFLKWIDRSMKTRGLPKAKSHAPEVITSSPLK
Entries and their log10(Kd)
parameter: log10(Kd) (log10 of the value in nM)

binder="D6-3 (ssRNA) RNA: GGGAGAGAGGAAGAGGGAUGGGAAAAUAGCCCCAGCGAGAUAAUACUUGGCCCCGCUGUUACCAUAACCCAGAGGUCGAU" readout_number=0.77
binder="D7-4 (ssRNA) RNA: GGGAGAGAGGAAGAGGGAUGGGAGAAUAGCCCCAGCGAGAUCGUACUUGGCCCCGCUAGUACCAUAACCCAGAGGUCGAU" readout_number=1.59
binder="D6-10 (ssRNA) RNA: GGGAGAGAGGAAGAGGGAUGGGCAGAUAGCCACAGCGAGAUCAUACUUGGCCCCGCUACUACCAUAACCCAGAGGUCGAU" readout_number=1.27
binder="E9-10 (ssRNA) RNA: GGGAGAGAGGAAGAGGGAUGGGCCAGAACCAACUGCGGUGAACCCCCCAUACCGCGACACAUCAUAACCCAGAGGUCGAU" readout_number=2.11
binder="D4-5 (ssRNA) RNA: GGGAGAGAGGAAGAGGGAUGGGAGAAUAGCCCCAGCGAGAUAAUCCUUGGCCCCGCUACUGCCAUAACCCAGAGGUCGAU" readout_number=1.34
binder="E9-8 (ssRNA) RNA: GGGAGAGAGGAAGAGGGAUGGGCCAGAAGGAACUAAACACCUGAACCCCCCAUCGCGAGAGACAUAACCCAGAGGUCGAU" readout_number=1.47
binder="F11-10 (ssRNA) RNA: GGGAGAGAGGAAGAGGGAUGGGCUCGGCAGAAGACACGCAUUCACCUGGUGCCACCUCGUAACAUAACCCAGAGGUCGAU" readout_number=1.93
